assay: ATG_NF_kB_CIS: Attagene CIS-FACTORIAL HepG2 Assay for human Nuclear Factor Kappa B (NF-kB) (AID 2282991); conditions: HepG2 Attagene cis-factorial NF-kB reporter mRNA; actives raise or lower the signal
The source made the active and inactive calls. How the source made its calls: active means hit-call score of the fitted dose curve at least 0.9, where 1 is the maximum; inactive means score below 0.9.
Permitted responses: 1 (active), 0 (inactive)

Past entries and their recorded results:
compound	class
Cc1cccc(C)c1O	0
CCCCCCC(=O)OCC	0
Cc1cc(=O)[nH]c(=S)[nH]1	0
Nc1nc(N)c2nc(CNc3ccc(C(=O)N[C@@H](CCC(=O)O)C(=O)O)cc3)cnc2n1	0
Cc1nc(-c2ccc3c(c2)CCN(CCC2CCC(NC(=O)/C=C/c4ccc(F)cc4)CC2)CC3)no1 (stereo unspecified)	0

Query block: Write down the call the test reported for this compound. Item: CCOC(=O)C(C)(C)Oc1ccc(Cl)cc1
Result block: 0

Query block: Also, Nc1ccc2c(c1)C(=O)c1ccccc1C2=O please.
Result block: 0

Query block: Record: CN[C@H]1CC[C@@H](c2ccc(Cl)c(Cl)c2)c2ccc(S(N)(=O)=O)cc21
Result block: 0

====

molecular target: Estrogen receptor (Homo sapiens) (UniProt P03372); assay: ATG_ERa_TRANS: Attagene TRANS-FACTORIAL HepG2 Assay for human Estrogen Receptor alpha (ERa) (AID 2282970); conditions: HepG2 Attagene TRANS ERa GAL4 reporter, mRNA
Sequence (P03372 whole entry, looked up, the tested form may be a part): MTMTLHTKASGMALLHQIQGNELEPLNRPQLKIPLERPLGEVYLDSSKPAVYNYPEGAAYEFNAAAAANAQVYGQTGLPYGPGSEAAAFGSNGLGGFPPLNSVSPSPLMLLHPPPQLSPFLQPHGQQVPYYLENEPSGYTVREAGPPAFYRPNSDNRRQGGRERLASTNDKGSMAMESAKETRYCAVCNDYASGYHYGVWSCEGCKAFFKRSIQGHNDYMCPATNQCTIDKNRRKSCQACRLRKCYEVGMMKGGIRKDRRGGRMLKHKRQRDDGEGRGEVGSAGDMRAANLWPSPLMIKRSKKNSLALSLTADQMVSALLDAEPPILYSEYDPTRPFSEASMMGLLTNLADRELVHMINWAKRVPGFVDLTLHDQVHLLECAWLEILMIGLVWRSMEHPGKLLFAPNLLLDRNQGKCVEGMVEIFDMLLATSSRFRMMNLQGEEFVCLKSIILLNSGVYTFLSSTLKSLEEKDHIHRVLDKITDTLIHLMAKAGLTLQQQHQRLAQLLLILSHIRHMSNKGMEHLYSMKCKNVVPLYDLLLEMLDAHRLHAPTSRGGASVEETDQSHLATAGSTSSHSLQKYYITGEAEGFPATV
Inconclusive results are not listed. Activity calls are given as the source filed them. Rule for the calls: active = hit-call score of the fitted dose curve at least 0.9, where 1 is the maximum; inconclusive = response in the unintended direction; inactive = score below 0.9.
property-label: AC50

Solved entries:
compound	observed-measurement
CC(=O)OCCOCCOCCOC(C)=O	inactive
C[C@]12C=CC(=O)C=C1CC[C@@H]1[C@@H]2C(=O)C[C@@]2(C)[C@H]1CC[C@]2(O)C(=O)CO	58.3 µM (active)
CCCCCCCCCCCCCCCCCC(=O)O	25.9 µM (active)
COCCOCCOC	inactive

Query block: Consider the compound shown here: c1cc(-c2ccncc2)ccn1 What is its recorded AC50?
Result block: inactive

Query block: Lookup CN1CCCC1=O
Result block: inactive

Query block: Follow-up entry: COc1cc(/C=C/C(=O)CC(=O)/C=C/c2ccc(O)c(OC)c2)ccc1O
Result block: inactive

Query block: Also, CCOc1ccc2c(c1)C(C)=CC(C)(C)N2 please.
Result block: 40.7 µM (active)

Query block: Same question for CCOC(=O)C(C)(C)Oc1ccc(Cl)cc1 please.
Result block: inactive

Query block: Entry to check: COCCOC[C@H](CC1(C(=O)NC2CCC(C(=O)O)CC2)CCCC1)C(=O)Oc1ccc2c(c1)CCC2 (stereo partly drawn)
Result block: inactive

Query block: Could you do the same for Nc1ccc(S(=O)(=O)c2ccc(N)cc2)cc1 , please?
Result block: inactive

Query block: Entry to check: Cc1ccc(Cl)cc1
Result block: inactive

Query block: // same read-out, input: CCCCCCCCCCCCCCCC
Result block: inactive

====

experiment: ACEA_ER_80hr: ACEA Biosciences xCELLigence Real-Time Cell Analysis on Estrogen Receptor Agonism for Proliferation (AID 2282667); conditions: T47D proliferation, impedance (xCELLigence), 80 h
Inconclusive results are not listed. Active and inactive are the calls of the source. How the source made its calls: active means hit-call score of the fitted dose curve at least 0.9, where 1 is the maximum; inconclusive means response in the unintended direction; inactive means score below 0.9.
Could you please pick one outcome from this set? T (active), F (inactive)

molecule	class
CCCCN(CCCC)CCCC	F
CC(CO)OC(C)CO (centres undefined) (tested in a mixture with another compound)	F
Cc1ccc(C)c(O)c1C	F
CCCCCCC(=O)OCC	F
COc1cc(S(=O)(=O)O)c(C)cc1N=Nc1c(O)ccc2cc(S(=O)(=O)O)ccc12	F
NC(=O)Cn1c(=O)cc(CCN2CCN(c3nccc4sccc34)CC2)c2ccc(F)cc21	F
O=C(OCCCCCOC(=O)c1ccccc1)c1ccccc1	F
COc1cc(C=O)ccc1O	F
CCCCCC(=O)O	F
CNCc1cc(F)ccc1Oc1ccc(Cl)c(Cl)c1	F

Query block: Please share the test call associated with Oc1ccc2ccccc2c1N=Nc1ccccc1 .
Result block: T

Query block: Next up: CCc1c(C(=O)NN2CCCCC2)nn(-c2ccc(Cl)cc2Cl)c1-c1ccc(Br)cc1
Result block: T

Query block: CC(=O)Oc1ccccc1C(=O)O ?
Result block: F

Query block: Another molecule to check: COc1ccc(C)cc1N
Result block: F

====

read-out: Cytochrome P450 3A7 (Homo sapiens); assay: LTEA_HepaRG_CYP3A7: Life Technologies and Expression Analysis (LTEA) Assay for CYP3A7 using HepaRG (AID 2283492); details: mRNA level, 48 h; actives raise or lower the signal
Activity calls are given as the source filed them. Rule for the calls: active = hit-call score of the fitted dose curve at least 0.9, where 1 is the maximum; inactive = score below 0.9.
Could you please pick one outcome from this set? active, inactive

compound	class
Cc1cc(=O)[nH]c(=S)[nH]1	inactive
CC(=O)C(C)=CC1C(C)=CCCC1(C)C (stereo not drawn)	inactive
CC1(C)CC(N=C=O)CC(C)(CN=C=O)C1 (stereo not drawn)	inactive
CCOc1ccc2c(c1)C(C)=CC(C)(C)N2	active
c1cc(-c2ccncc2)ccn1	active

Query block: Identify the outcome logged in this assay for the compound shown: CC(=O)OCCOCCOCCOC(C)=O
Result block: inactive

Query block: Next up: Cc1ccc(C(C)C)c(O)c1
Result block: inactive

Query block: And then CNCc1cc(F)ccc1Oc1ccc(Cl)c(Cl)c1 , what is it?
Result block: active

====

test: CEETOX_H295R_OHPROG: CeeTox H295R High-throughput Steroidogenesis Assay for OH-Progesterone (OHPROG) (AID 2283435); conditions: actives raise or lower the signal
Activity calls are given as the source filed them. The calls were made as follows: active = hit-call score of the fitted dose curve at least 0.9, where 1 is the maximum; inactive = score below 0.9.
Use one of these outcomes when replying: active, inactive

Query block: // param item: COC(=O)c1ccc(O)cc1 ; yields the recorded call
Result block: active

Query block: Next up: COc1ccc(C)cc1N
Result block: active

Query block: What do you get for C=CCc1ccc(O)c(OC)c1 ?
Result block: inactive

====

test: ATG_TA_CIS: Attagene CIS-FACTORIAL HepG2 Assay for human TA Basal Promoter (AID 2282964); details: HepG2 Attagene CIS-factorial TA basal promoter reporter; actives raise or lower the signal
Activity calls are given as the source filed them. The calls were made as follows: active = hit-call score of the fitted dose curve at least 0.9, where 1 is the maximum; inactive = score below 0.9.
The categories you may choose from are y (active), n (inactive)

Consider the following illustrative entries.
molecule	class
O=c1[nH]cc(F)c(=O)[nH]1	n
CCNc1cccc(C)c1	n
Cc1ccc(Cl)cc1	n
Cc1cc(NC(=O)C(=O)O)cc(C)c1Oc1ccc(O)c2c1CCC2	n
Cc1ccc(C)c(O)c1C	n

Query block: What call does the record list for COCCOC[C@H](CC1(C(=O)NC2CCC(C(=O)O)CC2)CCCC1)C(=O)Oc1ccc2c(c1)CCC2 (stereo not given in full) ?
Result block: n

Query block: Please give the result for CCCCCCOCCO too.
Result block: n

====

biological target: Cellular tumor antigen p53 (Homo sapiens) (UniProt P04637); experiment: ATG_p53_CIS: Attagene CIS-FACTORIAL HepG2 Assay for human p53 Transcription Factor (AID 2282994); details: HepG2 p53 cis-element reporter, Attagene mRNA; actives raise or lower the signal
Sequence (P04637 whole entry, looked up): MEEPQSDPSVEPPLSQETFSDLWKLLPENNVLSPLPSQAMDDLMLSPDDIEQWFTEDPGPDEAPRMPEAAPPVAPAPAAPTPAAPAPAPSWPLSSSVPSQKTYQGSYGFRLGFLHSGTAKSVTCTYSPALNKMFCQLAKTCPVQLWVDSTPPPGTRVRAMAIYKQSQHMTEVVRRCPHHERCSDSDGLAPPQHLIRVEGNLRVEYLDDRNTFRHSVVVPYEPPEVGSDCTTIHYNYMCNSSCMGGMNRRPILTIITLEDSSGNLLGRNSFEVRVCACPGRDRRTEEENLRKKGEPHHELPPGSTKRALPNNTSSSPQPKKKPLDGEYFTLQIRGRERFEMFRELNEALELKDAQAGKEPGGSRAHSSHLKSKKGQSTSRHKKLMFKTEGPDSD
Active and inactive are the calls of the source. Rule for the calls: active = hit-call score of the fitted dose curve at least 0.9, where 1 is the maximum; inactive = score below 0.9.
Pick one: active, inactive

compound	class
NS(=O)(=O)c1cc2c(cc1Cl)NCNS2(=O)=O	inactive

Query block: Tell me the assay call for Nc1nc(N)c2nc(CNc3ccc(C(=O)N[C@@H](CCC(=O)O)C(=O)O)cc3)cnc2n1 please.
Result block: inactive

Query block: Please do the same for CCc1c(C(=O)NN2CCCCC2)nn(-c2ccc(Cl)cc2Cl)c1-c1ccc(Br)cc1 as well.
Result block: inactive

Query block: Now this one: Cc1cc(NC(=O)C(=O)O)cc(C)c1Oc1ccc(O)c2c1CCC2
Result block: inactive

Query block: Request: O=[N+]([O-])C(CO)(CO)CO
Result block: inactive

Query block: Another compound: CC(=O)C(C)=CC1C(C)=CCCC1(C)C (centres undefined)
Result block: inactive

====

read-out: Interleukin-6 (IL6), IL6 (gene 3569); assay: BSK_CASM3C_IL6: BioMAP Diversity Plus: CASM3C Assay for Interleukin-6 (IL6) Biomarker Activity for (AID 2283040); conditions: primary human coronary artery smooth muscle cells; actives raise or lower the signal
The source made the active and inactive calls. Rule for the calls: active = hit-call score of the fitted dose curve at least 0.9, where 1 is the maximum; inactive = score below 0.9.
The reply should name one outcome from true for active, false for inactive

Answered examples (5):
CCCCCCCCCCO false
Cc1cccc([N+](=O)[O-])c1C false
CC(=O)OC/C=C(\C)CCC=C(C)C false
O=C(O)Cc1ccccc1Nc1c(Cl)cccc1Cl false
CCCCCCCCCCCC(=O)OC false

Query block: How did this test come out for CCCCCCCCCCCCCCCCCC(=O)O ?
Result block: false

Query block: Continue with C1CCC(SSC2CCCCC2)CC1
Result block: false

Query block: Again, but for COc1ccc(C)cc1N
Result block: false

Query block: Can you handle NCC1(Cc2noc(=O)[nH]2)CCCCC1 next?
Result block: false

Query block: Repeat with O=C(OCCCCCOC(=O)c1ccccc1)c1ccccc1
Result block: false

Query block: Follow-up item: COc1cc(S(=O)(=O)O)c(C)cc1N=Nc1c(O)ccc2cc(S(=O)(=O)O)ccc12
Result block: false

Query block: Next compound up: CCCc1cc(=O)[nH]c(=S)[nH]1
Result block: false

Query block: Next record, please: C[C@]12C=CC(=O)C=C1CC[C@@H]1[C@@H]2C(=O)C[C@@]2(C)[C@H]1CC[C@]2(O)C(=O)CO
Result block: true

Every entry's value here was drawn from PubChem BioAssay (EPA / NIEHS).
